Target: TGFβRI kinase (Homo sapiens, UniProt P36897)
Sequence (P36897 34-503): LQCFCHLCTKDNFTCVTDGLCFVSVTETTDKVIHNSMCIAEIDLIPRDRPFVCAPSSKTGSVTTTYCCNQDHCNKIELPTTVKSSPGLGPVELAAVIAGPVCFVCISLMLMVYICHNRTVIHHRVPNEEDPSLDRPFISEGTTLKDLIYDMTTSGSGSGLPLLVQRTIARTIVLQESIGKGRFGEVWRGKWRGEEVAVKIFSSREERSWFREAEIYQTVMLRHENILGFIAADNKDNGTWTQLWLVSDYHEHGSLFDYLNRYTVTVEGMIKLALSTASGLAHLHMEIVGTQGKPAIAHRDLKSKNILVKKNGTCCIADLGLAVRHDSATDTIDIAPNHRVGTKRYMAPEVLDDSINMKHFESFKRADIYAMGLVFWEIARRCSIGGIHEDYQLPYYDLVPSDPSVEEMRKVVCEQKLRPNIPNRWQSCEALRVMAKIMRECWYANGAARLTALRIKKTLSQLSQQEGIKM
Test: TGFβRI enzymatic single point inhibition assay
Format: biochemical
Conditions: TGFβRI, 20 µM
METRIC NAME: inhibition of TGFβRI at 20 µM

Worked cases, inhibition of TGFβRI at 20 µM given:
COMPOUND: Brc1cccc(CN2CCN(c3nnc(Nc4ccc(N5CCOCC5)cc4)c4ccccc34)CC2)c1
METRIC NAME: inhibition of TGFβRI at 20 µM
TEST VALUE: no inhibition
//
COMPOUND: FC(F)(F)c1cccc(CN2CCN(c3nnc(Nc4ccc(N5CCCCC5)cc4)c4ccccc34)CC2)c1 [Compound 10m]
METRIC NAME: inhibition of TGFβRI at 20 µM
TEST VALUE: no inhibition
//
COMPOUND: CN1CCN(c2ccc(Nc3nnc(N4CCN(Cc5cccc(C(F)(F)F)c5)CC4)c4ccccc34)cc2)CC1 [Compound 10n]
METRIC NAME: inhibition of TGFβRI at 20 µM
TEST VALUE: no inhibition
//
COMPOUND: CCN1CCN(c2ccc(Nc3nnc(N4CCN(Cc5cccc(C(F)(F)F)c5)CC4)c4ccccc34)cc2)CC1 [Compound 10o]
METRIC NAME: inhibition of TGFβRI at 20 µM
TEST VALUE: no inhibition
//
COMPOUND: c1ccc(CN2CCN(c3nnc(Nc4ccc(N5CCOCC5)cc4)c4ccccc34)CC2)cc1
METRIC NAME: inhibition of TGFβRI at 20 µM
TEST VALUE: no inhibition

Let us examine a further case.
Prompt: Lab note: need inhibition of TGFβRI at 20 µM for FC(F)(F)c1cccc(CN2CCN(c3nnc(Nc4ccc(N5CCOCC5)cc4)c4ccccc34)CC2)c1 on TGFβRI kinase (Homo sapiens, UniProt P36897), anyone have it?
Completion: no inhibition
